details: in n-butanol, 318.15 K
readout: solubility (mole fraction)
Number only, no unit.

**Q:** Entry under review: CN(C)CCC=C1c2ccccc2CCc2ccccc21.Cl . Reported solubility (mole fraction)?
**A:** 0.091

====

details: in n-propanol, 278.15 K
readout: solubility (mole fraction)
Answer with a number only.

**Q:** Which measured solubility (mole fraction) value corresponds to CN(C)CCC=C1c2ccccc2CCc2ccccc21.Cl ?
**A:** 0.0218

====

conditions: in 2-ethoxyethanol, 278.15 K
readout: solubility (mole fraction)
Would you mind answering with just the numeric figure?

**Q:** // query solubility (mole fraction) value for entry CN(C)CCC=C1c2ccccc2CCc2ccccc21.Cl
**A:** 0.084

====

conditions: in n-octanol, 293.15 K
readout: solubility (mole fraction)
Lab note: jot the number down without any unit.

**Q:** What value of solubility (mole fraction) has been recorded for this entry: CN(C)CCC=C1c2ccccc2CCc2ccccc21.Cl
**A:** 0.00388
